B1: ZNF75A (parent)
chain: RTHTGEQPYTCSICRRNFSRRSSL

- Variants of: B1
- run description: protein stability index of a GFP-peptide fusion (GPS, HEK-293T) (PSI 1-6); higher = more stable;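 further: lentivirally expressed fusions sorted by FACS into six bins by GFP to DsRed ratio, PSI derived from sequencing read proportions per bin multiplied by bin number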
- assay context: c terminus: a fixed tail appended
value type: protein stability index
Give bare numbers.

Please review the entries below; each comes with its answer.
E6Y | 2.44
T2W | 2.17

Let us move to another entry and its protein stability index.
Task: State the recorded protein stability index for this entry: `C14M`
Output: 3.92
